- test-target: Alkaline phosphatase, tissue-nonspecific isozyme (Homo sapiens) (UniProt P05186)
- Sequence (P05186 whole entry, looked up): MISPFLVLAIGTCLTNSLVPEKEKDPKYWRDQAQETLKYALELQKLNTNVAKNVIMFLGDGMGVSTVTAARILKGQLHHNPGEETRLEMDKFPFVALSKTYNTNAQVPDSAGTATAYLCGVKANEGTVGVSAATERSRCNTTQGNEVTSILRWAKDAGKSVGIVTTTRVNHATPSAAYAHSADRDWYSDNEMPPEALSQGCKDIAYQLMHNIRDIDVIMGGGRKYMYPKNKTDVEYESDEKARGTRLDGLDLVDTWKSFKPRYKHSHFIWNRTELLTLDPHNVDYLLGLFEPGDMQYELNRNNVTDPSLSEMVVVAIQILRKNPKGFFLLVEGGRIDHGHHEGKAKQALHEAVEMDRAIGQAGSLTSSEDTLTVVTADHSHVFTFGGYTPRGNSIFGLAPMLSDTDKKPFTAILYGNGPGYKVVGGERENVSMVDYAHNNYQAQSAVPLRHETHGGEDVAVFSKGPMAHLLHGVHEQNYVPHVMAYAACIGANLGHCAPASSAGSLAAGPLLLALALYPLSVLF
- assay-info: human TNAP enzyme inhibitors, SAR follow-up, selectivity assay for mouse IAP inhibitor project, biochemical, set 2 (AID 588639)
- condition-description: purified human TNAP enzyme activity, counter-screen for mouse IAP
Calls of active or inactive are those of the source. How the calls were made is not given here.
IC50 overview

// worked examples, IC50 included
[[record]]
molecule = "COc1ccc(OC)c(NC(=O)C2CCCN(S(=O)(=O)c3ccc4c(c3)oc(=O)n4C)C2)c1 (stereo not given)"
assay_readout = "IC50"
observed_value = "> 100 µM (inactive)"

[[record]]
molecule = "N#Cc1cccc(NS(=O)(=O)c2ccc3[nH]c(=O)oc3c2)c1"
assay_readout = "IC50"
observed_value = "> 100 µM (inactive)"

[[record]]
molecule = "CC(C)c1ccc(NC(=O)C2CCCN(S(=O)(=O)c3ccc4c(c3)oc(=O)n4C)C2)cc1 (stereo not given)"
assay_readout = "IC50"
observed_value = "> 100 µM (inactive)"


Q: Would you mind telling me what IC50 value was observed for COc1ccc(NC(=O)CCCNS(=O)(=O)c2ccc3[nH]c(=O)oc3c2)c(OC)c1 ?
A: > 100 µM (inactive)

Q: Please give the result for O=C(CCNS(=O)(=O)c1ccc2[nH]c(=O)oc2c1)NCc1cccc(Cl)c1 too.
A: > 100 µM (inactive)
